system: 3′ UTR of the TNFα gene; assay: cell-based luciferase reporter assay, 5B cell line (luciferase gene with entire 3′ UTR of the TNFα gene); design: species or system mouse; conditions: 10 μM compound; ratio of 5B to control 3B cell line
measured_metric: Luciferase 5B/3B (% of DMSO control 5B)/(% of DMSO control 3B)

# annotated cases, reported Luciferase 5B/3B (% of DMSO control 5B)/(% of DMSO control 3B) shown
molecule=C/C(=N\NC(=N)N)c1cccc(C(=O)N[C@@H](CC(C)C)C(=O)N2CCN(C(=O)[C@H](Cc3ccccc3)NCc3ccc([N+](=O)[O-])cc3)CC2)c1 recorded_measurement="79 (% of DMSO control 5B)/(% of D"
molecule="CC(C)CC(NC(=O)c1ccc(C(=NNC(=N)N)c2ccccc2)cc1)C(=O)N1CCN(C(=O)C(Cc2ccccc2)NC(=O)c2ccc([N+](=O)[O-])cc2)CC1 (mixture of isomers)" recorded_measurement="40 (% of DMSO control 5B)/(% of D"
molecule=CN1CCN(C(=O)CCC(=O)N2CCN(C(=O)[C@H](Cc3ccccc3)NC(=O)c3ccc(C(=O)c4ccccc4)cc3)CC2)CC1 recorded_measurement="105 (% of DMSO control 5B)/(% of D"
molecule=O=C(N[C@@H](Cc1ccccc1)C(=O)N1CCN(C(=O)CCC(=O)N2CCN(c3ccccc3)CC2)CC1)c1ccc(C(=O)c2ccccc2)cc1 recorded_measurement="49 (% of DMSO control 5B)/(% of D"
molecule="CC(C)CC(NC(=O)c1ccc(C(=NNC(=N)N)c2ccccc2)cc1)C(=O)N1CCN(C(=O)C(Cc2ccccc2)NC(=O)c2ccccc2)CC1 (stereo not drawn) [MES 10247]" recorded_measurement="41 (% of DMSO control 5B)/(% of D"
molecule="CC(C)CC(NC(=O)c1ccc(C(=NNC(=N)N)c2ccccc2)cc1)C(=O)N1CCN(C(=O)C(Cc2ccccc2)NC(=O)c2ccccc2)CC1 (mixture of isomers) [MES 10231]" recorded_measurement="33 (% of DMSO control 5B)/(% of D"

Give measured Luciferase 5B/3B (% of DMSO control 5B)/(% of DMSO control 3B) for every item shown.
1. CC(C)CC(NC(=O)c1ccc(I)cc1)C(=O)N1CCN(C(=O)C(Cc2ccccc2)NC(=O)c2ccc(C(=NNC(=N)N)c3ccccc3)cc2)CC1 (mixture of isomers)
2. C/C(=N\NC(=N)N)c1cccc(C(=O)N[C@@H](CC(C)C)C(=O)N2CCN(C(=O)[C@H](Cc3ccccc3)NCc3ccc(-c4ccccc4)cc3)CC2)c1
3. C/C(=N\NC(=N)N)c1cccc(C(=O)N[C@@H](CC(C)C)C(=O)N2CCN(C(=O)[C@H](Cc3ccccc3)NCc3ccc(I)cc3)CC2)c1
4. CC(C)CC(NC(=O)c1ccc2ccccc2c1)C(=O)N1CCN(C(=O)C(Cc2ccccc2)NC(=O)c2ccc(C(=NNC(=N)N)c3ccccc3)cc2)CC1 (mixture of isomers)
5. C/C(=N\NC(=N)N)c1cccc(C(=O)N[C@@H](CC(C)C)C(=O)N2CCN(C(=O)[C@H](Cc3ccccc3)NC(=O)c3ccc(OCc4ccccc4)cc3)CC2)c1
6. CC(C)C[C@H](NC(=O)c1ccccc1)C(=O)N1CCN(C(=O)[C@H](Cc2ccccc2)NC(=O)c2ccc(/C(=N\N=C(N)N)c3ccccc3)cc2)CC1.O=C(O)C(F)(F)F
7. CC(=NNC(=N)N)c1cccc(C(=O)NC(C)C(=O)N2CCN(C(=O)C(Cc3ccccc3)NC(=O)c3ccc(C(=NNC(=N)N)c4ccccc4)cc3)CC2)c1 (mixture of isomers)
8. CC(C)CC(NC(=O)c1ccc(Cl)cc1)C(=O)N1CCN(C(=O)C(Cc2ccccc2)NC(=O)c2ccc(C(=NNC(=N)N)c3ccccc3)cc2)CC1 (mixture of isomers)

*A*
26 (% of DMSO control 5B)/(% of D
36 (% of DMSO control 5B)/(% of D
50 (% of DMSO control 5B)/(% of D
40 (% of DMSO control 5B)/(% of D
40 (% of DMSO control 5B)/(% of D
49 (% of DMSO control 5B)/(% of D
71 (% of DMSO control 5B)/(% of D
39 (% of DMSO control 5B)/(% of D

Give measured Luciferase 5B/3B (% of DMSO control 5B)/(% of DMSO control 3B) for every item shown.
1. CC(=NNC(=N)N)c1ccc(C(=O)NC(Cc2ccccc2)C(=O)N2CCN(C(=O)C(CC(C)C)NC(=O)c3cccc(C(C)=NNC(=N)N)c3)CC2)cc1 (mixture of isomers)
2. CC(=O)N[C@@H](Cc1ccccc1)C(=O)N1CCN(C(=O)[C@H](CC(C)C)NC(=O)c2cccc(/C(C)=N/NC(=N)N)c2)CC1

*A*
1: 50 (% of DMSO control 5B)/(% of D; 2: 125 (% of DMSO control 5B)/(% of D
